METRIC NAME: melting point

Sample records with melting point:
# COMPOUND, melting point
records = [
    ("CC(=O)Nc1ccc(NC(=O)N(C[C@H]2CC[C@H](CN(C(=O)Nc3ccc(NC(C)=O)cc3)C3CCCCC3)CC2)C2CCCCC2)cc1", "228 to 231 °C"),
    ("CCC(O)(CC)c1cc(C)c(-c2cccc(OCc3ccc(CO)c(CO)c3)c2)c(C)c1", "133 °C"),
    ("CCn1cc(Nc2nc(Br)cn(C)c2=O)cn1", "138 to 140 °C"),
]

Dear colleague, could you send me melting point for each of the items below? Thanks.
1. CCNC(=S)N(CC)c1ccc(Cl)nc1
2. O=C(O)COc1ccc2cc(-c3oc4ccccc4c3C(=O)CC3CCCC3)ccc2c1
3. CC(C)NC1=C(Cl)NC(N)(C(=O)NC#N)C=N1 (configuration not stated)
4. CCOC(=O)Nc1cc(C(=O)NC(C)C)c(Cl)cc1F
5. O=C(O)CCCCc1cccn2cncc12

1: 84 to 86 °C; 2: 177 to 178 °C; 3: 232 °C; 4: 127 to 130 °C; 5: 195 to 197 °C

Please give melting point for each item listed below.
1. CCCCc1nc2c(N)nc3cc(CCc4ccccc4)ccc3c2n1CC(C)C
2. FC(F)C(F)(F)Oc1cccc(Nc2nccc(-c3cccc(OC(F)(F)F)c3)n2)c1
3. O=C1NCCCCC1NC(c1ccccc1)(c1ccccc1)c1ccccc1 (configuration not stated)
4. COc1nc(Cl)cnc1NS(=O)(=O)c1cccnc1-c1ccc(CC(C)C)cc1
5. CCCOc1ccccc1-c1nc(C=NNC(=O)OCC)c[nH]1
6. CC(CCCC(C)(C)O)C1CCC2C3CC=C4CC(O)CCC4(C)C3CCC12C (configuration not stated)
7. CCCCCCCCCCCCSc1nnn(C(C(N)=O)(c2ccccc2)c2c(C(C)C)cccc2C(C)C)n1 (configuration not stated)
8. Cc1nc2n(c(=O)c1CCCl)CCCC2OCc1ccccc1 (configuration not stated)

1: 181 to 182 °C; 2: 98 to 100 °C; 3: 189 °C; 4: 156 to 157 °C; 5: 129 to 132 °C; 6: 168 to 175 °C; 7: 102 to 105 °C; 8: 140 to 141 °C

Which melting point value is on record for COC(=O)c1ncn2c1[C@@H]1CCCN1C(=O)c1sccc1-2 ? 192 to 193 °C

* * *

METRIC NAME: melting point

Check out these entries, answers already filled in.
# COMPOUND, melting point
measured = [
    ("CC(C)(C)OC(=O)COc1ccc(-c2c(Cl)c(CN3C(=O)CCC3=O)nc3sc4c(c23)CCS(=O)(=O)C4)cc1", "204 to 205 °C"),
    ("CC(C)n1cnc(N2CCc3ccccc3CC2)c(C#N)c1=O", "152 to 154 °C"),
    ("CC1CCCCc2ncc(C#N)c(=O)n21 (stereo unspecified)", "154 °C"),
    ("COCCNC(=O)c1cccc(-c2cccc3cc(Cc4cccc(C(F)(F)F)c4)sc23)c1", "113 to 114 °C"),
    ("CC(C)(C)OC(=O)C(N)CCNC(=O)c1ccc2c(c1)C(=O)c1ccccc1C2=O (stereo unspecified)", "173 to 175 °C"),
]

Then there is this compound:
Requested field: melting point. Item: N#CCN1C(=O)COc2cc(F)c(-n3c(=O)n4n(c3=O)CCCC4)cc21 286 to 287 °C

* * *

Consider the following molecules; for each one, report its melting point.

Worked cases, answers included:
# MOLECULE, melting point
data = [
    ("CCN1CCc2cc(OC)c(OC)cc2C1C1CC(C(=O)N2CCN(c3ccccn3)CC2)CCC12c1cc(OC)c(OC)cc1CCN2CC (stereo not drawn)", "115 to 117 °C"),
    ("O=[N+]([O-])c1ccc2c(c1)S(=O)(=O)N=C(NC1CCC1)N2", "298 to 301 °C"),
    ("CC(Oc1ccc(-c2ccc(-c3c(Cc4ccccc4)oc4ccccc34)cc2)cc1)C(=O)O (stereo not drawn)", "112 to 114 °C"),
    ("COc1ccc(CN(C)c2ncnc3c(N4CCOCC4)nc(N4CCC(N(C)C)CC4)nc23)cc1", "109 to 110 °C"),
    ("COCCNc1nc2c(N)nc3ccccc3c2n1CC(C)(C)O", "176 to 178 °C"),
    ("Cc1cccc(C)c1NC(=O)N=C1CCCCCN1C", "128 to 130 °C"),
]

For each of the items listed, what is its melting point?
1. O=C(Nc1cccc(-c2ncno2)c1)Oc1ccc([N+](=O)[O-])cc1
2. Nc1cn(-c2cccnc2)nc1Br

1. 195 to 197 °C
2. 143 to 146 °C

Kindly give each listed record's melting point.
1. FC(F)(F)c1cccc2c1Sc1ccccc1NC2=S
2. COc1ccccc1C(=O)N(C)Cc1cccc(-c2ccc(CC3SC(=O)NC3=O)cc2)c1 (stereo not drawn)
3. CCOC(=O)C1=Cc2cc(Br)ccc2OCC1
4. O=C(O)C(=O)c1ccc(OCCSc2ccc3ccccc3c2)cc1

1: 265 to 267 °C; 2: 96 °C; 3: 86 to 87 °C; 4: 121 to 123 °C

Consider the molecule Cc1cncn1Cc1ccc2ccc3c(c2c1)C(C)(C)C(=O)O3 and give its measured melting point. 88 to 91 °C

* * *

METRIC NAME: melting point

Check out these entries, answers already filled in.
# SMI, melting point
measured = [
    ("CN1C(=O)[C@H](NC(=O)/C=C/c2ccc(Cl)c(Cl)c2)N=C(c2ccccc2)c2ccccc21", "145 to 147 °C"),
    ("CC(C)(C)c1cc(CCc2ccc(NC(=O)NC3CCN(Cc4ccccc4)CC3)cc2)cc(C(C)(C)C)c1O", "195 to 197 °C"),
    ("O=C1C(=Cc2ccco2)CCc2cc(OCCc3c[nH]cn3)ccc21", "57 to 60 °C"),
    ("CC(C)COC(=O)Nc1ccc(C2(O)CCSCC2)cc1", "150 to 151 °C"),
]

Go through the items and report each one's melting point.
1. CNc1snc(C)c1[N+](=O)[O-]
2. COc1cccc2c1CCN([C@@H]1CN3CCC1CC3)C2=O
3. O=Cc1cc(-c2ccccc2)no1

153 °C
> 290 °C
67 to 69 °C

* * *

METRIC NAME: melting point

The following molecules have reported results that may help.
# MOLECULE, melting point
data = [
    ("COC(=O)CCC(C)C1CCC2C3C(C(C)=O)CC4CC(C(C)=O)CCC4(C)C3C=CC12C (stereo unspecified)", "137 to 139 °C"),
    ("CCCCCCCCCCCCCCCCCCC(N)(CO)CO", "76 to 80 °C"),
    ("Cc1c(Cc2cccnc2)oc2ccc(Br)cc12", "57 to 58 °C"),
    ("Cc1ccc(NCC2CCN(C3CCCC3)CC2)c(C(=O)Nc2ccc(Cl)cn2)c1", "173 to 175 °C"),
    ("COc1ccc(-c2nc(COc3ccc(CCCn4ccnc4)cc3)co2)s1", "96 to 97 °C"),
    ("CN(Cc1sc2c(=O)c(C(=O)NCc3ccc(Cl)cc3)cn(C)c2c1COCC[Si](C)(C)C)CC(O)c1ccc2ccccc2n1 (stereo unspecified)", "163 to 166 °C"),
    ("C[Si](C)(c1ccc(N(c2ccccc2)c2ccccc2)cc1)c1ccc(N(c2ccccc2)c2ccccc2)cc1", "170 to 172 °C"),
    ("Nc1ccc(Oc2ccccc2OCc2ccccc2)cc1", "111 to 112 °C"),
    ("Cn1c(-c2cccs2)nnc1S(C)=O (stereo unspecified)", "105 to 107 °C"),
    ("CN1CC(C(=O)c2ccc(Cc3ccc(F)cc3)o2)=C(O)C1=O", "141 to 143 °C"),
]

Now, please, on to the next molecule.
What measured melting point goes with CN(C)c1ccc(C#N)nn1 ? 150 °C

* * *

METRIC NAME: melting point

Here is how some molecules turned out for melting point.
# MOLECULE, ENDPOINT RESULT
records = [
    ("COc1cc(N)c(Cl)cc1C(=O)OCC12CCCN(CCC1)C2", "152 to 154 °C"),
    ("COC(=O)c1c(C(=O)NC(C)(C(N)=O)C(C)C)cccc1[N+](=O)[O-] (centres undefined)", "100 to 107 °C"),
    ("COc1ccc2[nH]cc(C3=C(Cl)C(=O)C=C(Cl)C3=O)c2c1", "195 to 196 °C"),
]

Hi team, please reply with melting point for each item in this list.
1. O=c1[nH]ncc2[nH]c(-c3ccc(OC(F)F)c(OC4CC4)c3)c(Cc3ccccc3)c12
2. COC(=O)CCCc1cc2nc(C(F)(F)F)ccc2n1S(=O)(=O)c1ccccc1
3. CC1Cn2c(=O)[nH]c3cccc(c32)CN1CCc1ccccc1 (centres undefined)
4. N/C(=C1/Sc2ccccc2C1=O)c1ccccc1F
5. Cc1ccc(C)n1-c1nc(S(=O)(=O)Nc2cccc(Cl)c2Cl)n[nH]1
6. N#CCC(=O)c1ccc[nH]1

215 to 217 °C
95 °C
150 °C
156 to 158 °C
185 °C
79 to 81 °C

Data provenance: a melting point compilation (Tetko et al.; mined from patent text by program, amines drawn as free bases though some values may be those of a salt)
